target: Glucose transporter (Leishmania mexicana); assay: ST_JUDE_LEISH: Cytotoxicity at 2uM final concentration against transgenic Leishmania Mexicana promastigotes LmGT2 that are glucose transport deficient and complemented with the L. Mexicana glucose transporter 2. Activity is measured by DNA content using SYBR green in vitro; assay type: functional
parameterMeasured: inhibition (%)
Report only the number, with the unit % understood.

CC(C)NCc1ccc(-c2cccc(-c3nc4cc(C(F)(F)F)ccc4[nH]3)c2)cc1; 4.16

Ask | Enter reported inhibition observed with Glucose transporter (Leishmania mexicana) for N#CCCN1CCN(Cc2cccc(-c3ccc(-c4nc5cc(F)ccc5[nH]4)cc3)c2)CC1
Reply | 3.71

Ask | And what about the molecule CCCc1cc(C)ccc1OCCCON1C(N)=NC(N)=NC1(C)C ?
Reply | 25.9

Where do the numbers come from? From ChEMBL document CHEMBL3433997.
